meta.source: ChEMBL document CHEMBL1671686

System: Escherichia coli
Assay: Antimicrobial activity against Escherichia coli isolate 543T expressing beta-lactamase KPC2 and PFGE cluster 4 isolated from synovial fluid of patient by agar dilution method
Assay type: functional
Quantity: MIC (µg/mL)
Please reply with the bare figure in µg/mL and do not write the unit itself.

Query :: # MIC lookup, item C[C@@H](O)[C@H]1C(=O)N2C(C(=O)O)=C(SCCNC=N)C[C@H]12 [IMIPENEM ANHYDROUS]
Result :: 2

Query :: # MIC lookup, item C[C@@H](O)[C@H]1C(=O)N2C(C(=O)O)=C(S[C@@H]3CN[C@H](C(=O)Nc4cccc(C(=O)O)c4)C3)[C@H](C)[C@H]12
Result :: 2

Query :: # MIC lookup, item C[C@@H](O)[C@H]1C(=O)N2C(C(=O)O)=C(S[C@@H]3CN[C@H](C(=O)N(C)C)C3)[C@H](C)[C@H]12
Result :: 0.5

* * *

System: Escherichia coli
Experiment: Antimicrobial activity against Escherichia coli isolate 540 expressing beta-lactamase KPC2, TEM and PFGE cluster 4 isolated from synovial fluid of patient by agar dilution method
Type: functional
Kindly state MIC for each of the entries shown.
Please reply with the bare figure in µg/mL and do not write the unit itself.

Query :: What reported MIC corresponds to C[C@@H](O)[C@H]1C(=O)N2C(C(=O)O)=C(S[C@@H]3CN[C@H](C(=O)Nc4cccc(C(=O)O)c4)C3)[C@H](C)[C@H]12 on Escherichia coli?
Result :: 16

Query :: What reported MIC corresponds to C[C@@H](O)[C@H]1C(=O)N2C(C(=O)O)=C(S[C@@H]3CN[C@H](C(=O)N(C)C)C3)[C@H](C)[C@H]12 on Escherichia coli?
Result :: 4

Query :: What reported MIC corresponds to C[C@@H](O)[C@H]1C(=O)N2C(C(=O)O)=C(S[C@@H]3CN[C@H](CNS(N)(=O)=O)C3)[C@H](C)[C@H]12 on Escherichia coli?
Result :: 1

Query :: What reported MIC corresponds to C[C@@H](O)[C@H]1C(=O)N2C(C(=O)O)=C(SCCNC=N)C[C@H]12 [IMIPENEM ANHYDROUS] on Escherichia coli?
Result :: 4

* * *

Test system: Escherichia coli
Assay: Antimicrobial activity against Escherichia coli isolate 1679 expressing beta-lactamase KPC2, SHV-12, TEM and PFGE cluster 6 isolated from peritoneal fluid of patient by vitek-2 method
Assay type: functional
Quantity: MIC

Query :: # MIC lookup, item NCC[C@H](O)C(=O)N[C@@H]1C[C@H](N)[C@@H](O[C@H]2O[C@H](CN)[C@@H](O)[C@H](O)[C@H]2O)[C@H](O)[C@H]1O[C@H]1O[C@H](CO)[C@@H](O)[C@H](N)[C@H]1O
Result :: < 2 µg/mL

Query :: # MIC lookup, item C[C@H]1COc2c(N3CCN(C)CC3)c(F)cc3c(=O)c(C(=O)O)cn1c23.C[C@H]1COc2c(N3CCN(C)CC3)c(F)cc3c(=O)c(C(=O)O)cn1c23.O
Result :: > 8 µg/mL

Query :: # MIC lookup, item CC(C)(O/N=C(\C(=O)N[C@@H]1C(=O)N2C(C(=O)[O-])=C(C[n+]3ccccc3)CS[C@H]12)c1csc(N)n1)C(=O)O
Result :: > 64 µg/mL

Query :: # MIC lookup, item CO/N=C(\C(=O)N[C@@H]1C(=O)N2C(C(=O)O)=C(CSc3nc(=O)c(O)nn3C)CS[C@H]12)c1csc(N)n1
Result :: 32 µg/mL
